Value source: the supplement of paper PMC11061612

Listing of entries alongside the reported Bliss excess.
test system: A172 (Glioblastoma); test: Bliss excess, mean over the matrix (fraction); higher = more synergy;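 further: after 72 h of two-drug dosing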
measured-quantity: Bliss excess

>  <compound>
C[C@@H](c1ccc2nccn2c1)n1nnc2ncc(-c3cnn(C)c3)nc21 [Savolitinib] + Cc1c2c(nn1C)CSCc1cc(n(C)n1)CSc1cc(c3ccccc3c1)OCCCc1c(C(=O)O)n(C)c3c-2c(Cl)ccc13 [AZD5991] (first compound max 1 µM, 7x7, partner max 1 µM)

>  <measured-quantity>
Bliss excess

>  <experimental-result>
-0.0747

$$$$
>  <compound>
CC(=O)c1c(C)c2cnc(Nc3ccc(N4CCNCC4)cn3)nc2n(C2CCCC2)c1=O [Palbociclib] + CC1(C)CCC(CN2CCN(c3ccc(C(=O)NS(=O)(=O)c4ccc(NCC5CCOCC5)c([N+](=O)[O-])c4)c(Oc4cnc5[nH]ccc5c4)c3)CC2)=C(c2ccc(Cl)cc2)C1 [Venetoclax] (first compound max 10 µM, 7x7, partner max 1 µM)

>  <measured-quantity>
Bliss excess

>  <experimental-result>
-0.003

$$$$
>  <compound>
NC1(C(=O)N[C@@H](CCO)c2ccc(Cl)cc2)CCN(c2ncnc3[nH]ccc23)CC1 [Capivasertib] + C[C@@H]1COCCN1C2=NC(=NC(=C2)C3(CC3)[S@](=N)(=O)C)C4=C5C=CNC5=NC=C4 [AZD6738] (first compound max 10 µM, 7x7, partner max 10 µM)

>  <measured-quantity>
Bliss excess

>  <experimental-result>
-0.0106

$$$$
>  <compound>
C[C@@H](c1ccc2nccn2c1)n1nnc2ncc(-c3cnn(C)c3)nc21 [Savolitinib] + CN(CC[C@H](CSC1=CC=CC=C1)NC2=C(C=C(C=C2)S(=O)(=O)NC(=O)C3=CC=C(C=C3)N4CCC(CC4)[C@H](C5=CC=CC=C5C6=CC=C(C=C6)Cl)O)S(=O)(=O)C(F)(F)F)CCO [AZD4320] (first compound max 1 µM, 7x7, partner max 1 µM)

>  <measured-quantity>
Bliss excess

>  <experimental-result>
-0.0551

$$$$
>  <compound>
COc1nnc2ccc(N3CCC(c4ccc(OCCN5CCN(C)C(=O)[C@H]5C)cc4)CC3)nn12 [AZD5153] + C=CCn1c(=O)c2cnc(Nc3ccc(N4CCN(C)CC4)cc3)nc2n1-c1cccc(C(C)(C)O)n1 [AZD1775] (first compound max 1 µM, partner max 1 µM)

>  <measured-quantity>
Bliss excess

>  <experimental-result>
-0.0521

$$$$
>  <compound>
COc1nnc2ccc(N3CCC(c4ccc(OCCN5CCN(C)C(=O)[C@H]5C)cc4)CC3)nn12 [AZD5153] + CN(CC[C@H](CSC1=CC=CC=C1)NC2=C(C=C(C=C2)S(=O)(=O)NC(=O)C3=CC=C(C=C3)N4CCC(CC4)[C@H](C5=CC=CC=C5C6=CC=C(C=C6)Cl)O)S(=O)(=O)C(F)(F)F)CCO [AZD4320] (first compound max 1 µM, 7x7, partner max 1 µM)

>  <measured-quantity>
Bliss excess

>  <experimental-result>
0.037

$$$$

====

test system: GDM-1 (Acute Myeloid Leukemia); test: Bliss excess, mean over the matrix (fraction); higher = more synergy
measured-quantity: Bliss excess

>  <compound>
C=CCn1c(=O)c2cnc(Nc3ccc(N4CCN(C)CC4)cc3)nc2n1-c1cccc(C(C)(C)O)n1 [AZD1775] + C1CN(CCC1(C(=O)N[C@@H](CCO)C2=CC=C(C=C2)Cl)N)C3=NC=NC4=C3C=CN4 [Capivasertib] (first compound max 3 µM, partner max 3 µM)

>  <experimental-result>
-0.0422

$$$$
>  <compound>
CC1(C)CCC(CN2CCN(c3ccc(C(=O)NS(=O)(=O)c4ccc(NCC5CCOCC5)c([N+](=O)[O-])c4)c(Oc4cnc5[nH]ccc5c4)c3)CC2)=C(c2ccc(Cl)cc2)C1 [Venetoclax] + COc1cc(Nc2ncc3c(n2)-c2ccc(Cl)cc2C(c2c(F)cccc2OC)=NC3)ccc1C(=O)O [Alisertib] (first compound max 1 µM, 7x7, partner max 10 µM)

>  <experimental-result>
0.0312

$$$$
>  <compound>
COc1nnc2ccc(N3CCC(c4ccc(OCCN5CCN(C)C(=O)[C@H]5C)cc4)CC3)nn12 [AZD5153] + CC1(C)CCC(CN2CCN(c3ccc(C(=O)NS(=O)(=O)c4ccc(NCC5CCOCC5)c([N+](=O)[O-])c4)c(Oc4cnc5[nH]ccc5c4)c3)CC2)=C(c2ccc(Cl)cc2)C1 [Venetoclax] (first compound max 1 µM, 7x7, partner max 1 µM)

>  <experimental-result>
0.0348

$$$$
>  <compound>
Cc1c2c(nn1C)CSCc1cc(n(C)n1)CSc1cc(c3ccccc3c1)OCCCc1c(C(=O)O)n(C)c3c-2c(Cl)ccc13 [AZD5991] + CCN(CCO)CCCOc1ccc2c(Nc3cc(CC(=O)Nc4cccc(F)c4)[nH]n3)ncnc2c1 [AZD2811] (first compound max 1 µM, 7x7, partner max 1 µM)

>  <experimental-result>
0.0444

$$$$
>  <compound>
NC1(C(=O)N[C@@H](CCO)c2ccc(Cl)cc2)CCN(c2ncnc3[nH]ccc23)CC1 [Capivasertib] + CC(C)n1c(=O)n(C)c2cnc3cc(F)c(-c4ccc(OCCCN5CCCCC5)nc4)cc3c21 [AZD1390] (first compound max 10 µM, 7x7, partner max 0.3 µM)

>  <experimental-result>
-0.0904

$$$$
>  <compound>
COc1nnc2ccc(N3CCC(c4ccc(OCCN5CCN(C)C(=O)[C@H]5C)cc4)CC3)nn12 [AZD5153] + C=CCn1c(=O)c2cnc(Nc3ccc(N4CCN(C)CC4)cc3)nc2n1-c1cccc(C(C)(C)O)n1 [AZD1775] (first compound max 1 µM, partner max 1 µM)

>  <experimental-result>
-0.0247

$$$$
>  <compound>
COc1cccc(OCCCN)c1-c1cc(Nc2cnc(C#N)cn2)n[nH]1 [Prexasertib] + Cc1cc2ncnn2cc1Nc1ncc2c(n1)n(C1CCOCC1)c(=O)n2C [AZD7648] (first compound max 1 µM, 7x7, partner max 10 µM)

>  <experimental-result>
-0.058

$$$$
>  <compound>
COc1nnc2ccc(N3CCC(c4ccc(OCCN5CCN(C)C(=O)[C@H]5C)cc4)CC3)nn12 [AZD5153] + C[C@@H]1COCCN1C2=NC(=NC(=C2)C3(CC3)[S@](=N)(=O)C)C4=C5C=CNC5=NC=C4 [AZD6738] (first compound max 1 µM, 7x7, partner max 10 µM)

>  <experimental-result>
0.0146

$$$$
>  <compound>
C[C@@H](c1ccc2nccn2c1)n1nnc2ncc(-c3cnn(C)c3)nc21 [Savolitinib] + Cc1c2c(nn1C)CSCc1cc(n(C)n1)CSc1cc(c3ccccc3c1)OCCCc1c(C(=O)O)n(C)c3c-2c(Cl)ccc13 [AZD5991] (first compound max 1 µM, 7x7, partner max 1 µM)

>  <experimental-result>
-0.0004

$$$$
>  <compound>
CN(C)CCCOc1ccc(-c2ccc3ncc4c(c3c2)n(C2CCOCC2)c(=O)n4C)cn1 [AZD0156] + C[C@@H]1COCCN1C2=NC(=NC(=C2)C3(CC3)[S@](=N)(=O)C)C4=C5C=CNC5=NC=C4 [AZD6738] (first compound max 1 µM, 7x7, partner max 10 µM)

>  <experimental-result>
-0.0439

$$$$
>  <compound>
CN(CCO)CC[C@H](CSc1ccccc1)Nc1ccc(S(=O)(=O)NC(=O)c2ccc(N3CCC([C@@H](O)c4ccccc4-c4ccc(Cl)cc4)CC3)cc2)cc1S(=O)(=O)C(F)(F)F [AZD4320] + Cc1cc2ncnn2cc1Nc1ncc2c(n1)n(C1CCOCC1)c(=O)n2C [AZD7648] (first compound max 1 µM, 7x7, partner max 10 µM)

>  <experimental-result>
-0.0041

$$$$

====

system: D-283MED (Other Solid Carcinomas); experiment: Bliss excess, mean over the matrix (fraction); higher = more synergy

>  <molecule>
COc1cccc2c1C(=O)c1c(O)c3c(c(O)c1C2=O)C[C@@](O)(C(=O)CO)C[C@@H]3O[C@H]1C[C@H](N)[C@H](O)[C@H](C)O1 [Doxorubicin] + Cc1cc2ncnn2cc1Nc1ncc2c(n1)n(C1CCOCC1)c(=O)n2C [AZD7648] (first compound max 1 µM, 7x7, partner max 10 µM)

>  <study-system>
D-283MED (Other Solid Carcinomas)

>  <Bliss excess>
0.0461

$$$$
>  <molecule>
CN(CCO)CC[C@H](CSc1ccccc1)Nc1ccc(S(=O)(=O)NC(=O)c2ccc(N3CCC([C@@H](O)c4ccccc4-c4ccc(Cl)cc4)CC3)cc2)cc1S(=O)(=O)C(F)(F)F [AZD4320] + C[C@@H](Nc1cc(F)cc(F)c1)c1cc(C(=O)N(C)C)cc2c(=O)cc(N3CCOCC3)oc12 [AZD8186] (first compound max 1 µM, 7x7, partner max 3 µM)

>  <study-system>
D-283MED (Other Solid Carcinomas)

>  <Bliss excess>
0.0429

$$$$
>  <molecule>
CN(CCO)CC[C@H](CSc1ccccc1)Nc1ccc(S(=O)(=O)NC(=O)c2ccc(N3CCC([C@@H](O)c4ccccc4-c4ccc(Cl)cc4)CC3)cc2)cc1S(=O)(=O)C(F)(F)F [AZD4320] + C[C@@H]1COCCN1C2=NC(=NC(=C2)C3(CC3)[S@](=N)(=O)C)C4=C5C=CNC5=NC=C4 [AZD6738] (first compound max 1 µM, 7x7, partner max 10 µM)

>  <study-system>
D-283MED (Other Solid Carcinomas)

>  <Bliss excess>
0.0139

$$$$
>  <molecule>
CN(CCO)CC[C@H](CSc1ccccc1)Nc1ccc(S(=O)(=O)NC(=O)c2ccc(N3CCC([C@@H](O)c4ccccc4-c4ccc(Cl)cc4)CC3)cc2)cc1S(=O)(=O)C(F)(F)F [AZD4320] + C=CCn1c(=O)c2cnc(Nc3ccc(N4CCN(C)CC4)cc3)nc2n1-c1cccc(C(C)(C)O)n1 [AZD1775] (first compound max 1 µM, partner max 1 µM)

>  <study-system>
D-283MED (Other Solid Carcinomas)

>  <Bliss excess>
-0.0122

$$$$
>  <molecule>
Cc1nc(Nc2ncc(C(=O)Nc3c(C)cccc3Cl)s2)cc(N2CCN(CCO)CC2)n1 [Dasatinib] + CC(=O)Nc1cccc(-n2c(=O)n(C3CC3)c(=O)c3c(Nc4ccc(I)cc4F)n(C)c(=O)c(C)c32)c1 [Trametinib] (first compound max 2 µM, 7x7, partner max 1 µM)

>  <study-system>
D-283MED (Other Solid Carcinomas)

>  <Bliss excess>
-0.0475

$$$$
>  <molecule>
CC1(C)CCC(CN2CCN(c3ccc(C(=O)NS(=O)(=O)c4ccc(NCC5CCOCC5)c([N+](=O)[O-])c4)c(Oc4cnc5[nH]ccc5c4)c3)CC2)=C(c2ccc(Cl)cc2)C1 [Venetoclax] + C[C@@H](Nc1cc(F)cc(F)c1)c1cc(C(=O)N(C)C)cc2c(=O)cc(N3CCOCC3)oc12 [AZD8186] (first compound max 1 µM, 7x7, partner max 3 µM)

>  <study-system>
D-283MED (Other Solid Carcinomas)

>  <Bliss excess>
-0.0149

$$$$
